Give measured cytotoxicity at 70.5 h for each item. Keep answers brief.
# Protocol description: Human HepG2 cell viability assay in 384 well format
# Type: toxicity, cell-based
# Set-up: dose 125 nL, time 70.5 hour; concentration not given beside the values
# Measurement setup: HepG2 cells, read-out: Inhibition
Write down the numeric answer in % and omit the unit.

Challenge: I am curious: what cytotoxicity at 70.5 h value has been reported for "CCOC1CCN(C(=O)Nc2ccc(=O)n(C)c2)CC1" ?
Response given: 25

Challenge: I am curious: what cytotoxicity at 70.5 h value has been reported for "Cc1ccc(CN2C[C@@H]3COC[C@H](NS(C)(=O)=O)[C@@H]3C2)s1" ?
Response given: -10.6

Challenge: I am curious: what cytotoxicity at 70.5 h value has been reported for CC(C)CN(CC(O)c1ccc(F)cc1)C(=O)c1csnn1 (centres undefined) ?
Response given: 14.1

Challenge: I am curious: what cytotoxicity at 70.5 h value has been reported for "CNC(=O)NC(=O)CN(Cc1ccc(C#N)cc1)Cc1cccc(F)c1" ?
Response given: -2.77

Challenge: I am curious: what cytotoxicity at 70.5 h value has been reported for "CN(Cc1ccco1)Cc1ccccc1CNC(=O)c1ccncc1" ?
Response given: -8

Challenge: I am curious: what cytotoxicity at 70.5 h value has been reported for "CN1CCN(Cc2cnc3n2CCN(C(=O)N2CCCC2)C3)CC1" ?
Response given: -14.4

Challenge: I am curious: what cytotoxicity at 70.5 h value has been reported for "Cc1ccc(CN(CCN(C)C)Cc2c(C)nc3sccn23)o1" ?
Response given: 6.95

Challenge: I am curious: what cytotoxicity at 70.5 h value has been reported for CCc1cc(N2CCC(NC3CN4CCC3CC4)CC2)nc(N(C)C)n1 (centres undefined) ?
Response given: 29.4

Challenge: I am curious: what cytotoxicity at 70.5 h value has been reported for CCCN(Cc1nnnn1C1CC1)CC1COc2ccccc2O1 (centres undefined) ?
Response given: 0.609

Challenge: I am curious: what cytotoxicity at 70.5 h value has been reported for NC(=O)CN1CCCC(CCCc2ccccn2)(C(N)=O)C1 (centres undefined) ?
Response given: -3

Challenge: I am curious: what cytotoxicity at 70.5 h value has been reported for COc1ncccc1NC(=O)N1CCOCC1C (centres undefined) ?
Response given: 4.15

Challenge: I am curious: what cytotoxicity at 70.5 h value has been reported for CNS(=O)(=O)c1ccc(CNC(=O)C2CCCO2)cc1 (centres undefined) ?
Response given: 27.2

Challenge: I am curious: what cytotoxicity at 70.5 h value has been reported for "Cc1ccccc1C1(CNC(=O)NCCc2nnc3n2CCC3)CC1" ?
Response given: -17.5

Challenge: I am curious: what cytotoxicity at 70.5 h value has been reported for "CN(C)c1cccc(C(=O)Nc2cn(C)c(=O)n(C)c2=O)c1" ?
Response given: -3.1

Challenge: I am curious: what cytotoxicity at 70.5 h value has been reported for CC(C)OCCC(=O)NCC(c1c(F)cccc1F)N(C)C (centres undefined) ?
Response given: 22.3

Challenge: I am curious: what cytotoxicity at 70.5 h value has been reported for "Cn1ccnc1CN(CCO)Cc1ccc(C(F)(F)F)cc1" ?
Response given: -6.45

Challenge: I am curious: what cytotoxicity at 70.5 h value has been reported for "Cc1ccc(C(=O)NCCS(=O)(=O)Cc2ccccc2)c(C)c1" ?
Response given: 1.96

Challenge: I am curious: what cytotoxicity at 70.5 h value has been reported for "O=C(NCCCn1ccnc1)N1CCN(c2cccs2)CC1" ?
Response given: -8.6

Challenge: I am curious: what cytotoxicity at 70.5 h value has been reported for CN1CCOC(C(=O)N(C)c2ccc3c(c2)CCO3)C1 (centres undefined) ?
Response given: -18.1

Challenge: I am curious: what cytotoxicity at 70.5 h value has been reported for "Cc1[nH]ncc1C(=O)NCC1CCC2(CC1)OCCO2" ?
Response given: -5.66

Challenge: I am curious: what cytotoxicity at 70.5 h value has been reported for CN(C)CCN(Cc1ccccn1)Cc1ccnn1C1CCCCO1 (centres undefined) ?
Response given: -2.87

Challenge: I am curious: what cytotoxicity at 70.5 h value has been reported for "CSCC[C@@H]1CN2CCC[C@H]2CN1Cc1coc2ccc(C)cc2c1=O" ?
Response given: -1.62

Challenge: I am curious: what cytotoxicity at 70.5 h value has been reported for "COCCCc1nc(-c2ccc(S(=O)(=O)N3CCCC3)cc2)cs1" ?
Response given: -4.93

Challenge: I am curious: what cytotoxicity at 70.5 h value has been reported for O=C(CN1CCCC1)N1CCCC(CNS(=O)(=O)Cc2ccccc2)C1 (centres undefined) ?
Response given: 22.2
